Measurement target: IN/DNA complexes (Human immunodeficiency virus type 1 group M subtype B)
Run description: Dissociation of pre-formed IN-DNA substrate complexes
Assay type: biochemical, HIV-1
Procedure: For dissociation experiments, IN-DNA substrate complexes were pre-formed at 25° C. before addition of peptides. The peptide-mediated dissociation of complexes was then studied at the same temperature by measuring the decrease in the r value as a function of time.
Where no end group is shown, it is not given here.
Could you please report measured pEC50 for the items listed next?
One number for each entry, as −log10 of the molar value.

| Record sequence | Property name | Observed measurement |
| --- | --- | --- |
| GTKWLTEVWPL [Peptide P16] | pEC50 | 4.96 |

Would you be so kind as to report pEC50 for each listed record?
1. GTKWLTEWIPL [Peptide P24]
2. KWLTEWIPLTAEAE [Peptide P26]

Solution:
1: 4.68; 2: 4.17

---

Measurement target: HIV-1 RT (Human immunodeficiency virus type 1 group M subtype B, UniProt P03366)
Construct: The heterodimeric p66/p51 RT was eluted with an imidazole gradient; p66 and p51 derived from p66 by proteolytic cleavage of the C-terminal RNAse H domain; made in house; host or cells: E. coli (M15 for the His-tagged subunits)
Run description: biochemical
Condition info: Dixon plot; mean of three separate experiments; read-out: Ki (μM), inhibition of polymerase activity of HIV-1 RT
Property name: Ki
// unit must come after the numeric part

Exercise: For the substance GTKWLTEWIPLTAEAEC-FITC [PAW-FITC] , report Ki.
Solution: 2.7 µM

---

Could you please report measured pEC50 for the items listed next?
Measurement target: IN/DNA complexes (Human immunodeficiency virus type 1 group M subtype B)
Run description: DNA-binding of integrase, fluorescence anisotropy
Format: biochemical, HIV-1
Where no end group is shown, it is not given here.
Give bare numbers, as −log10 of the molar value.

| Record sequence | Measurement target | pEC50 |
| --- | --- | --- |
| GTKWLTEWIPL [Peptide P24] | IN/DNA complexes (Human immunodeficiency virus type 1 group M subtype B) | 4.46 |
| KWLTEWIPLTAEAE [Peptide P26] | IN/DNA complexes (Human immunodeficiency virus type 1 group M subtype B) | 4.27 |

Exercise: For the sequence GTKWLTEVWPL [Peptide P16] , report pEC50.
Solution: 5.10

---

System: HIV-1-LAI strain
Condition info: read-out: IC50, antiviral activity; text b123; peptide with Pep-1
Where no end group is shown, it is not given here.
Property name: IC50

Exercise: For the sequence GTKWLTEWIPLTAE [Peptide P27] , report IC50.
Solution: < 0.32 nM

---

Tested on: HIV-1 strain 2914
Condition info: peptide with Pep-1 or Pep-3 at ratio 20/1, combinations with Pep-3
Where no end group is shown, it is not given here.
Could you please report measured pIC50 for the items listed next?
One number for each entry, as −log10 of the molar value.

| Record sequence | Observed measurement |
| --- | --- |
| GTKWLTEVWPL [Peptide P16] | 8.77 |

Then there is this sequence:
Exercise: For the sequence GTKWLTEWIPLTAE [Peptide P27] , report pIC50.
Solution: 9.70

---

Measurement target: HIV-1 integrase (Human immunodeficiency virus type 1 group M subtype B, UniProt P04585)
Construct: Integrase is a 32 kDA viral protein that is biologically active under a multimeric form
Run description: biochemical
Where no end group is shown, it is not given here.
Property name: EC50 (µM)
One number for each entry, in µM.

| Record sequence | Unit symbol | EC50 |
| --- | --- | --- |
| GTKWLTEVWPL [Peptide P16] | µM | 10 |
| GTKWLTEWIPL [Peptide P24] | µM | 33 |

Then there is this sequence:
Exercise: For the sequence KWLTEWIPLTAEAE [Peptide P26] , report EC50.
Solution: 28

---

Measurement target: HIV-1 integrase (Human immunodeficiency virus type 1 group M subtype B)
Construct: Integrase is a 32 kDA viral protein that is biologically active under a multimeric form
Run description: IN 3′-processing activity, gel-electrophoresis procedure
Assay type: biochemical
Condition info: read-out: IC50 3′-proc
Property name: pIC50
Answers are plain numbers, as −log10 of the molar value.

Exercise: For the substance GTKWLTEWIPLTAEAEC-FITC [PAW-FITC] , report pIC50.
Solution: 5.00

---

Measurement target: HIV-1 RT (Human immunodeficiency virus type 1 group M subtype B, UniProt P03366)
Construct: The heterodimeric p66/p51 RT was eluted with an imidazole gradient; p66 and p51 derived from p66 by proteolytic cleavage of the C-terminal RNAse H domain; made in house; host or cells: E. coli (M15 for the His-tagged subunits)
Run description: biochemical
Where a SMILES comes first, the peptide text is derived from it. Bridges are numbered along the chain shown (N, C = ends).
Could you please report measured log10 of Ki for the items listed next?
In plain terms, each number is the log10 of measured Ki in µM.

Solved cases (8 shown):
| Compound | log10 of Ki |
| --- | --- |
| CC[C@H](C)[C@H](NC(=O)[C@@H](NC(=O)[C@H](CCC(=O)O)NC(=O)[C@@H](NC(=O)[C@H](CC(C)C)NC(=O)[C@H](C)NC(=O)[C@H](CCCCN)NC(=O)[C@@H](NC(=O)CN)[C@@H](C)O)[C@@H](C)O)C(C)C)C(=O)N1CCC[C@H]1C(=O)N[C@@H](CC(C)C)C(=O)N[C@H](C(=O)N[C@@H](CCC(=O)O)C(=O)N[C@@H](CCC(=O)O)C(=O)N[C@@H](C)C(=O)N[C@@H](CCC(=O)O)C(=O)O)[C@@H](C)O [Peptide P1] | 0.88 |
| CC[C@H](C)[C@H](NC(=O)[C@@H](NC(=O)[C@H](CCC(=O)O)NC(=O)[C@@H](NC(=O)[C@H](CC(C)C)NC(=O)[C@H](C)NC(=O)[C@H](CCCCN)NC(=O)[C@@H](NC(=O)CN)[C@@H](C)O)[C@@H](C)O)C(C)C)C(=O)N1CCC[C@H]1C(=O)N[C@@H](CC(C)C)C(=O)N[C@H](C(=O)O)[C@@H](C)O [Peptide P18] | 1.72 |
| CC[C@H](C)[C@H](NC(=O)[C@@H](NC(=O)[C@H](CCC(=O)O)NC(=O)[C@@H](NC(=O)[C@H](CC(C)C)NC(=O)[C@H](C)NC(=O)[C@H](CCCCN)NC(=O)[C@@H](NC(=O)CNC(=O)[C@@H](N)CCCNC(=N)N)[C@@H](C)O)[C@@H](C)O)C(C)C)C(=O)N1CCC[C@H]1C(=O)N[C@@H](CC(C)C)C(=O)N[C@H](C(=O)N[C@@H](CCC(=O)O)C(=O)N[C@@H](CCC(=O)O)C(=O)N[C@@H](C)C(=O)N[C@@H](CCC(=O)O)C(=O)O)[C@@H](C)O [Pep-A, reference compound] | 1.54 |
| CC[C@H](C)[C@H](NC(=O)[C@@H](NC(=O)[C@H](CCC(=O)O)NC(=O)[C@@H](NC(=O)[C@H](CC(C)C)NC(=O)[C@H](C)NC(=O)[C@H](CCCCN)NC(=O)[C@@H](NC(=O)CN)[C@@H](C)O)[C@@H](C)O)C(C)C)C(=O)N1CCC[C@H]1C(=O)N[C@@H](CC(C)C)C(=O)N[C@H](C(=O)N[C@@H](C)C(=O)N[C@@H](CCC(=O)O)C(=O)N[C@@H](C)C(=O)N[C@@H](CCC(=O)O)C(=O)O)[C@@H](C)O [Peptide P14] | 1.15 |
| CC[C@H](C)[C@H](NC(=O)[C@@H](NC(=O)[C@H](CCC(=O)O)NC(=O)[C@@H](NC(=O)[C@H](CC(C)C)NC(=O)[C@H](C)NC(=O)[C@H](CCCCN)NC(=O)[C@@H](NC(=O)CN)[C@@H](C)O)[C@@H](C)O)C(C)C)C(=O)N1CCC[C@H]1C(=O)N[C@@H](CC(C)C)C(=O)N[C@H](C(=O)N[C@@H](CCC(=O)O)C(=O)N[C@@H](C)C(=O)N[C@@H](C)C(=O)N[C@@H](CCC(=O)O)C(=O)O)[C@@H](C)O [Peptide P15] | 1.15 |
| CC(C)C[C@@H]1NC(=O)[C@H](Cc2c[nH]c3ccccc23)NC(=O)[C@H](CCCCN)NC(=O)[C@H]([C@@H](C)O)NC(=O)CNC(=O)[C@@H](N)CSSC[C@@H](C(=O)O)NC(=O)[C@H](CC(C)C)NC(=O)[C@@H]2CCCN2C(=O)[C@H](Cc2c[nH]c3ccccc23)NC(=O)[C@H](C(C)C)NC(=O)[C@H](CCC(=O)O)NC(=O)[C@H]([C@@H](C)O)NC1=O [Peptide P16C1] (H-CGTKWLTEVWPLC-OH; disulfide 1-13) | 1.51 |
| CC[C@H](C)[C@H](NC(=O)[C@@H](NC(=O)[C@H](CCC(=O)O)NC(=O)[C@@H](NC(=O)[C@H](CC(C)C)NC(=O)[C@H](C)NC(=O)[C@H](CCCCN)NC(=O)[C@H](C)NC(=O)CN)[C@@H](C)O)C(C)C)C(=O)N1CCC[C@H]1C(=O)N[C@@H](CC(C)C)C(=O)N[C@H](C(=O)N[C@@H](CCC(=O)O)C(=O)N[C@@H](CCC(=O)O)C(=O)N[C@@H](C)C(=O)N[C@@H](CCC(=O)O)C(=O)O)[C@@H](C)O [Peptide P3] | 1.01 |
| CC[C@H](C)[C@H](NC(=O)[C@@H](NC(=O)[C@H](CCC(=O)O)NC(=O)[C@@H](NC(=O)[C@H](CC(C)C)NC(=O)[C@H](C)NC(=O)[C@H](C)NC(=O)[C@@H](NC(=O)CN)[C@@H](C)O)[C@@H](C)O)C(C)C)C(=O)N1CCC[C@H]1C(=O)N[C@@H](CC(C)C)C(=O)N[C@H](C(=O)N[C@@H](CCC(=O)O)C(=O)N[C@@H](CCC(=O)O)C(=O)N[C@@H](C)C(=O)N[C@@H](CCC(=O)O)C(=O)O)[C@@H](C)O [Peptide P4] | 1.18 |

Would you be so kind as to report log10 of Ki for each listed record?
1. CC[C@H](C)[C@@H]1NC(=O)[C@H](Cc2c[nH]c3ccccc23)NC(=O)[C@H](CCC(=O)O)NC(=O)[C@H]([C@@H](C)O)NC(=O)[C@H](CC(C)C)NC(=O)[C@H](Cc2c[nH]c3ccccc23)NC(=O)[C@H](CCCCN)NC(=O)[C@H]([C@@H](C)O)NC(=O)CNC(=O)[C@@H](N)CSSC[C@@H](C(=O)O)NC(=O)[C@H](CCC(=O)O)NC(=O)[C@H](C)NC(=O)[C@H]([C@@H](C)O)NC(=O)[C@H](CC(C)C)NC(=O)[C@@H]2CCCN2C1=O [Peptide P27C1] (H-CGTKWLTEWIPLTAEC-OH; disulfide 1-16)
2. CC[C@H](C)[C@H](NC(=O)[C@@H](NC(=O)[C@H](CCC(=O)O)NC(=O)[C@@H](NC(=O)[C@H](CC(C)C)NC(=O)[C@H](C)NC(=O)[C@H](CCCCN)NC(=O)[C@@H](NC(=O)[C@H](C)N)[C@@H](C)O)[C@@H](C)O)C(C)C)C(=O)N1CCC[C@H]1C(=O)N[C@@H](CC(C)C)C(=O)N[C@H](C(=O)N[C@@H](CCC(=O)O)C(=O)N[C@@H](CCC(=O)O)C(=O)N[C@@H](C)C(=O)N[C@@H](CCC(=O)O)C(=O)O)[C@@H](C)O [Peptide P2]

Solution:
1. -1.38
2. 1.45

Where do these numbers come from? They come from patent US20110294728A1.
